- Target: HLA-A*2402 (human)
- Procedure text: iTopia net score;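 note: iScore from iTopia software combining peptide binding, affinity over a dilution series and off-rate after warming to body temperature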
Collected iScore values appear next to each entry.

Use the examples below as a reference point.
| Binder | iScore |
| --- | --- |
| TPPEYKALF [cdr2 418-426 TPPEYKALF] | 0.084 |
| LYDLRQHFV [cdr2 164-172 LYDLRQHFV] | 0.157 |
| HLKKTVTML [cdr2 197-205 HLKKTVTML] | 0.075 |

Okay, next one:
Please report the measured iScore for VYDHVFAEK [cdr2 172-180 VYDHVFAEK]
0.165
